Where a name gives a salt, the structure may show the parent alone.
This listing pairs compounds with measured melting point.
observedProperty: melting point

[[record]]
compound = "COc1nc(Br)cnc1NS(=O)(=O)c1sc(Cl)c(Cl)c1Cl (as salt: ammonium)"
observedresult = "211 °C (dec.)"

[[record]]
compound = "COc1nc(Br)cnc1NS(=O)(=O)c1scc(Cl)c1Cl (as salt: ammonium)"
observedresult = "204 °C (dec.)"

[[record]]
compound = "COc1nccnc1NS(=O)(=O)c1sc(Cl)c(Cl)c1Cl"
observedresult = "212 to 214 °C"

[[record]]
compound = "COc1nc(C)cnc1NS(=O)(=O)c1scc(Cl)c1Cl"
observedresult = "117 to 118 °C"

[[record]]
compound = "COc1nc(Cl)cnc1NS(=O)(=O)c1scc(Cl)c1Cl"
observedresult = "116 to 117 °C"

[[record]]
compound = "COc1nccnc1NS(=O)(=O)c1scc(Cl)c1Cl"
observedresult = "151.5 to 152.5 °C"

[[record]]
compound = "COc1nc(C)cnc1NS(=O)(=O)c1sc(Cl)c(Cl)c1Cl"
observedresult = "146 to 147 °C"

[[record]]
compound = "COc1nc(Cl)cnc1NS(=O)(=O)c1sc(Cl)c(Cl)c1Cl"
observedresult = "178 to 179 °C"

